target: Heat shock factor protein 1 (Homo sapiens); test: ATG_HSE_CIS: Attagene CIS-FACTORIAL HepG2 Assay for human Heat Shock Transcription Factor 1 (HSE) (AID 2282953); settings: HepG2 HSE cis-reporter, Attagene RNA transcription; actives raise or lower the signal
Active and inactive are the calls of the source. The calls were made as follows: active = hit-call score of the fitted dose curve at least 0.9, where 1 is the maximum; inactive = score below 0.9.
Answer with one of the outcomes active, inactive

See these solved cases before continuing.
| COMPOUND | MEASURED_ON | ASSIGNED_CLASS |
| --- | --- | --- |
| CCCOC(=O)c1ccccc1C(=O)OCCC | Heat shock factor protein 1 (Homo sapiens) | inactive |
| Nc1cc(Cl)cc(Cl)c1 | Heat shock factor protein 1 (Homo sapiens) | inactive |
| CC(C)(C)C(O)C(Oc1ccc(-c2ccccc2)cc1)n1cncn1 (stereo not drawn) | Heat shock factor protein 1 (Homo sapiens) | active |
| N#CC(c1ccccc1)c1ccccc1 | Heat shock factor protein 1 (Homo sapiens) | inactive |
| CC(C)CCCCCCCOP(=O)(Oc1ccccc1)Oc1ccccc1 | Heat shock factor protein 1 (Homo sapiens) | inactive |
| Cc1ccc(C)c2ccccc12 | Heat shock factor protein 1 (Homo sapiens) | inactive |
| Oc1ccc(Cl)cc1 | Heat shock factor protein 1 (Homo sapiens) | inactive |
| CC(C)COP(=O)(OCC(C)C)OCC(C)C | Heat shock factor protein 1 (Homo sapiens) | inactive |
| CCOP(O)OCC | Heat shock factor protein 1 (Homo sapiens) | inactive |
| C[C@]12CC[C@H](O)C[C@H]1CC[C@@H]1[C@@H]2C[C@@H](O)[C@]2(C)[C@@H](C3=CC(=O)OC3)CC[C@]12O | Heat shock factor protein 1 (Homo sapiens) | active |

Exercise: Tell me the assay call for `COCC(=O)N(c1c(C)cccc1C)N1CCOC1=O` please.
Key: inactive

Exercise: Tell me the assay call for `O=C(O)C(Br)Br` please.
Key: inactive

Exercise: Tell me the assay call for CN1C(=O)CCS(=O)(=O)C1c1ccc(Cl)cc1 (stereo not drawn) please.
Key: inactive
